Catalogue of compounds with associated pIC50
# Assay system: human recombinant GCL (Homo sapiens (Human), UniProt P48506)
# Sequence (P48506 whole entry): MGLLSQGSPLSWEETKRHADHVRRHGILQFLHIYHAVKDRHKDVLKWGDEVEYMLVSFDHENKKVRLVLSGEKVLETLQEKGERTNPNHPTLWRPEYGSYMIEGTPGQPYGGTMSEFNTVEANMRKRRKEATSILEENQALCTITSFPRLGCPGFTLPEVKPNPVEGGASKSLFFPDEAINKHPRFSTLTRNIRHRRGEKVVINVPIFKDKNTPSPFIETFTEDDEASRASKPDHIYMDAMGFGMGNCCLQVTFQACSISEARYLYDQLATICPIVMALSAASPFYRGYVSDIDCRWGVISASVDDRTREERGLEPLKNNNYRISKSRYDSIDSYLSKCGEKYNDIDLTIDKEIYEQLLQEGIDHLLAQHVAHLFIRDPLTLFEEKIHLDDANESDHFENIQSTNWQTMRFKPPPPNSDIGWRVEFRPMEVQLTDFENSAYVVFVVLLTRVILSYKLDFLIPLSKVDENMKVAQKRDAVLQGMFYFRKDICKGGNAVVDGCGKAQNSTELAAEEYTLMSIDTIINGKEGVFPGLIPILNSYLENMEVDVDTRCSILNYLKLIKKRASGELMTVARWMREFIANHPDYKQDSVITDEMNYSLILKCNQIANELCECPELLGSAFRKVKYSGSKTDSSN
# Measurement description: GCL enzyme profiling assay (ADP-Glo luminescence)
# Type: biochemical
# Conditions used: human recombinant GCL 5 nM, 1 h preincubation with ATP; read-out: GCL IC50
pIC50: −log10 of the molar value.

**Q:** Return pIC50 measured with human recombinant GCL (Homo sapiens (Human), UniProt P48506) given this compound: CN(C)C(=O)C1(CCS(=N)(=O)CC[C@H](N)C(=O)O)CCC1 (stereo partly shown)
**A:** 2.70 to 4.70

**Q:** # value lookup — system human recombinant GCL (Homo sapiens (Human), UniProt P48506), readout pIC50, item Cc1ccc(C(C)(C)CCS(=N)(=O)CC[C@H](N)C(=O)O)cc1 (stereo partly shown)
**A:** 2.70 to 4.70

**Q:** Item: N=S(=O)(CC[C@H](N)C(=O)O)CCC1(O)CC1 (stereo partly shown) Test system: human recombinant GCL (Homo sapiens (Human), UniProt P48506) Read-out: pIC50 Value: ?
**A:** 2.70 to 4.70

**Q:** Hello, I am looking for reported pIC50 with human recombinant GCL (Homo sapiens (Human), UniProt P48506) for N=S(=O)(CCc1cccc2c1OC(F)(F)O2)CC[C@H](N)C(=O)O (stereo partly shown) . Could you help?
**A:** 2.70 to 4.70

**Q:** I'm curious: which pIC50 was measured for N#Cc1ccccc1CCS(=N)(=O)CC[C@H](N)C(=O)O (stereo partly shown) tested on human recombinant GCL (Homo sapiens (Human), UniProt P48506)?
**A:** ≥ 4.70

**Q:** # query: pIC50 | item Cc1ccc(CCS(=N)(=O)CC[C@H](N)C(=O)O)c(Cl)c1 (stereo partly shown) | system: human recombinant GCL (Homo sapiens (Human), UniProt P48506)
**A:** ≥ 4.70

**Q:** Under human recombinant GCL (Homo sapiens (Human), UniProt P48506): pIC50 value of N=S(=O)(CC[C@H](N)C(=O)O)CCC1(C(=O)N2CCCC2)CCC1 (stereo partly shown) ?
**A:** 2.70 to 4.70

**Q:** Short answer please: pIC50, human recombinant GCL (Homo sapiens (Human), UniProt P48506), entry COC(=O)C(C)(C)CCS(=N)(=O)CC[C@H](N)C(=O)O (stereo partly shown)
**A:** 2.70 to 4.70

**Q:** Form field: pIC50 recorded for Cc1ccc(C(F)(F)F)c(CCS(=N)(=O)CC[C@H](N)C(=O)O)c1 (stereo partly shown) with human recombinant GCL (Homo sapiens (Human), UniProt P48506) (enter value)
**A:** ≥ 4.70

**Q:** Kindly state the measured pIC50 obtained for CC(C)OC(=O)[C@@H](N)CCS(=N)(=O)CCCC(F)(F)F (stereo partly shown) with human recombinant GCL (Homo sapiens (Human), UniProt P48506).
**A:** 2.70 to 4.70

**Q:** pIC50 of CC(C)(C)CCS(=N)(=O)CC[C@H](N)C(=O)NC(C)(C)C (stereo partly shown) on human recombinant GCL (Homo sapiens (Human), UniProt P48506)?
**A:** < 2.70

**Q:** Recorded pIC50 for N=S(=O)(CC[C@H](N)C(=O)O)CC[C@H](O)c1ccccc1 (stereo partly shown) with human recombinant GCL (Homo sapiens (Human), UniProt P48506), please?
**A:** 2.70 to 4.70

**Q:** What reported pIC50 corresponds to CC(C)OCCCS(=N)(=O)CC[C@H](N)C(=O)O (stereo partly shown) on human recombinant GCL (Homo sapiens (Human), UniProt P48506)?
**A:** 2.70 to 4.70

**Q:** Param readout = pIC50; param system = human recombinant GCL (Homo sapiens (Human), UniProt P48506); param query = CC(C)(CCS(=N)(=O)CC[C@H](N)C(=O)O)C(F)(F)F (stereo partly shown) ; response: value
**A:** 2.70 to 4.70

**Q:** # returns recorded pIC50 (system: human recombinant GCL (Homo sapiens (Human), UniProt P48506)) for CC(C)(C)CC[S@@](=N)(=O)CC[C@H](N)C(=O)Nc1cccnc1 (single isomer, unassigned)
**A:** < 2.70

**Q:** Lookup: pIC50 / human recombinant GCL (Homo sapiens (Human), UniProt P48506) / CC(C)(C)CCS(=N)(=O)CC[C@H](N)C(=O)NS(C)(=O)=O (stereo partly shown)
**A:** 2.70 to 4.70

**Q:** Form: Entry = CNC(=O)C1(CCS(=N)(=O)CC[C@H](N)C(=O)O)CCC1 (stereo partly shown) | System = human recombinant GCL (Homo sapiens (Human), UniProt P48506) | pIC50 = ____
**A:** 2.70 to 4.70

**Q:** // fetch human recombinant GCL (Homo sapiens (Human), UniProt P48506) pIC50 for Cc1cccc(C(C)(C)CCS(=N)(=O)CC[C@H](N)C(=O)O)c1 (stereo partly shown)
**A:** 2.70 to 4.70

**Q:** Short answer please: pIC50, human recombinant GCL (Homo sapiens (Human), UniProt P48506), entry CC(C)(C)CCS(=N)(=O)CC[C@H](N)C(=O)NC1CC1 (stereo partly shown)
**A:** 2.70 to 4.70

**Q:** Short answer please: pIC50, human recombinant GCL (Homo sapiens (Human), UniProt P48506), entry CN(C)C(=O)[C@@H](N)CCS(=N)(=O)CCC(C)(C)C (stereo partly shown)
**A:** < 2.70
